These entries and their values trace back to ChEMBL document CHEMBL1137710.

System: SN12C
Experiment: Growth inhibition of human SN12C cells after 48 hrs by sulforhodamine B assay
Format: functional
Details: read-out: pTGI (converted)
TGI overview
Give the number; µM is assumed, so skip it.

# count of solved cases: 3
{"smiles_structure": "COc1cc(OC)cc(Oc2nc3cc(N)cc(N)c3nc2-c2ccccc2)c1", "property": "TGI", "unit": "µM", "test_value": 34.7}
{"smiles_structure": "Nc1cc(N)c2nc(-c3ccccc3)c(NCc3ccc(F)cc3)nc2c1", "property": "TGI", "unit": "µM", "test_value": 23.4}
{"smiles_structure": "Nc1cc(N)c2nc(-c3ccccc3)c(NCc3ccc(Cl)c(Cl)c3)nc2c1", "property": "TGI", "unit": "µM", "test_value": 24}

Reported TGI for `COc1cc(CNc2nc3cc(N)cc(N)c3nc2-c2ccccc2)cc(OC)c1OC` : what is it?
16.6

====

# TGI listing for each entry below
System: Malme-3M
Assay: Growth inhibition of human MALME-3M cells after 48 hrs by sulforhodamine B assay
Type: functional
Details: read-out: pTGI (converted)
Answer format: numeric, µM implied, no suffix.

Some solved entries appear below for comparison.
{"smiles_structure": "Nc1cc(N)c2nc(-c3ccccc3)c(Sc3ccc(Cl)c(Cl)c3)nc2c1", "test_value": 50.1}
{"smiles_structure": "COc1ccc(CNc2nc3cc(N)cc(N)c3nc2-c2ccccc2)cc1", "test_value": 22.4}
{"smiles_structure": "COc1ccc(CNc2nc3cc(N)cc(N)c3nc2-c2ccccc2)cc1OC", "test_value": 18.6}

Query compound follows.
Requested read-out: TGI. Entry: `COc1ccc(Sc2nc3cc(N)cc(N)c3nc2-c2ccccc2)cc1`
95.5

====

Tested on: MDA-MB-231
Assay: Growth inhibition of human MDA-MB-231 cells after 48 hrs by sulforhodamine B assay
Type: functional
Details: MDA-MB-231, 48 h
Readings of GI50 for the listed molecules

{"smiles_structure": "Nc1cc(N)c2nc(-c3ccccc3)c(NCc3ccc(F)cc3)nc2c1", "property": "GI50", "test_value": "2.14 µM"}
{"smiles_structure": "Nc1cc(N)c2nc(-c3ccccc3)c(Sc3ccc(Cl)c(Cl)c3)nc2c1", "property": "GI50", "test_value": "16.6 µM"}
{"smiles_structure": "COc1ccc(Sc2nc3cc(N)cc(N)c3nc2-c2ccccc2)cc1", "property": "GI50", "test_value": "> 100 µM"}
{"smiles_structure": "COc1cc(OC)cc(Oc2nc3cc(N)cc(N)c3nc2-c2ccccc2)c1", "property": "GI50", "test_value": "3.98 µM"}
{"smiles_structure": "Nc1cc(N)c2nc(-c3ccccc3)c(Sc3ccc(F)cc3)nc2c1", "property": "GI50", "test_value": "17.4 µM"}

Moving on to the next molecule.
Request - read-out GI50 | tested on MDA-MB-231 | molecule `COc1cc(CNc2nc3cc(N)cc(N)c3nc2-c2ccccc2)cc(OC)c1`
2.09 µM

====

In this section we review reported log10(TGI) values for a set of compounds.
System: SK-MEL-5
Assay: Growth inhibition of human SK-MEL-5 cells after 48 hrs by sulforhodamine B assay
Format: functional
Settings: SK-MEL-5, 48 h, read-out: pTGI (converted)
Annotation: log10 of TGI, µM basis.

Some compounds with known log10(TGI) results, for comparison:
{"smiles_structure": "Nc1cc(N)c2nc(-c3ccccc3)c(Sc3ccc(F)cc3)nc2c1", "log10(TGI)": 1.52}
{"smiles_structure": "Nc1cc(N)c2nc(-c3ccccc3)c(Oc3ccc(F)cc3)nc2c1", "log10(TGI)": 1.50}
{"smiles_structure": "Nc1cc(N)c2nc(-c3ccccc3)c(Sc3ccc(Cl)c(Cl)c3)nc2c1", "log10(TGI)": 1.98}
{"smiles_structure": "COc1ccc(CNc2nc3cc(N)cc(N)c3nc2-c2ccccc2)cc1OC", "log10(TGI)": 1.44}
{"smiles_structure": "Nc1cc(N)c2nc(-c3ccccc3)c(NCc3ccc(F)cc3)nc2c1", "log10(TGI)": 0.56}

Tell me the measured log10(TGI) of `COc1cc(CNc2nc3cc(N)cc(N)c3nc2-c2ccccc2)cc(OC)c1OC` , please.
0.89

Quick one: log10(TGI) of `COc1cc(CNc2nc3cc(N)cc(N)c3nc2-c2ccccc2)cc(OC)c1` ?
1.62

Which log10(TGI) value belongs to `Nc1cc(N)c2nc(-c3ccccc3)c(Oc3ccc(Cl)c(Cl)c3)nc2c1` ?
1.46

Requested read-out: log10(TGI). Entry: `Nc1cc(N)c2nc(-c3ccccc3)c(NCc3ccc(Cl)c(Cl)c3)nc2c1`
1.03
